# targetDesc: T1, TNFR1 (Homo sapiens, UniProt P19438)
# T1 chain: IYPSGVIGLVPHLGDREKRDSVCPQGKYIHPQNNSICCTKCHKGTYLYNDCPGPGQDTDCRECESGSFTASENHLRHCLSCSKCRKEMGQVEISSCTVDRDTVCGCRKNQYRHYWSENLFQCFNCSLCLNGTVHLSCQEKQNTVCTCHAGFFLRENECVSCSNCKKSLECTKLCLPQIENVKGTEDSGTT
# experimentNotes: yeast display SC50
readoutName: apparent Kd (screen) (nM)

Sample records with apparent Kd (screen):
- binder: "L52H (designed binder) MTLQELLREEALRRAEAEAFRYALELLAEKFPEQKEYLLDLAEEIESQIRSHSGVDVEDVRKFLDKEWAWVKELLAEHPAELAEVEAARAARLAELRAEVEAKVAA"
  readoutUnits: "nM"
  apparent Kd (screen): 6.43
- binder: "A80D (designed binder) MTLQELLREEALRRAEAEAFRYALELLAEKFPEQKEYLLDLAEEIESQIRSLSGVDVEDVRKFLDKEWAWVKELLAEHPDELAEVEAARAARLAELRAEVEAKVAA"
  readoutUnits: "nM"
  apparent Kd (screen): 0.49

I: E101D (designed binder) MTLQELLREEALRRAEAEAFRYALELLAEKFPEQKEYLLDLAEEIESQIRSLSGVDVEDVRKFLDKEWAWVKELLAEHPAELAEVEAARAARLAELRAEVDAKVAA
II: A80N (designed binder) MTLQELLREEALRRAEAEAFRYALELLAEKFPEQKEYLLDLAEEIESQIRSLSGVDVEDVRKFLDKEWAWVKELLAEHPNELAEVEAARAARLAELRAEVEAKVAA
In terms of reported apparent Kd (screen), does I or II have the smaller number? # answer = label of selected item I
(I: 0.49 nM, II: 1.27 nM)
